Tested on: Benzodiazepine receptors (BDZ-Rs)
Test: Inhibition of 3H-flunitrazepam (3H-FNZ) binding to washed rat cerebral cortical membranes
Condition context: mean ± SEM from displacement curves of [3H] flunitrazepam binding to rat synaptosomal membranes; read-out: Ki
Measured attribute: Ki (nM)
I only need the number, in nM, no unit after it.

Guide cases for Ki, answers given:
1) O=c1cc(-c2ccccc2)oc2ccc([N+](=O)[O-])cc12 = 275
2) O=c1cc(-c2cccc(Cl)c2)oc2ccccc12 = 614
3) O=c1cc(-c2cccc(Br)c2)oc2ccccc12 = 414

[Q] Indicate its recorded Ki; the compound in question is `O=c1cc(-c2cccc(Br)c2)oc2ccc(Br)cc12`
[A] 18.6

[Q] Return Ki (reported value) for this compound: `O=c1cc(-c2cccc(Br)c2)oc2ccc([N+](=O)[O-])cc12`
[A] 25.2
